Molecular target: T1, rhesus CD11a (rhesus) (UniProt H9Z8N3)
T1 sequence: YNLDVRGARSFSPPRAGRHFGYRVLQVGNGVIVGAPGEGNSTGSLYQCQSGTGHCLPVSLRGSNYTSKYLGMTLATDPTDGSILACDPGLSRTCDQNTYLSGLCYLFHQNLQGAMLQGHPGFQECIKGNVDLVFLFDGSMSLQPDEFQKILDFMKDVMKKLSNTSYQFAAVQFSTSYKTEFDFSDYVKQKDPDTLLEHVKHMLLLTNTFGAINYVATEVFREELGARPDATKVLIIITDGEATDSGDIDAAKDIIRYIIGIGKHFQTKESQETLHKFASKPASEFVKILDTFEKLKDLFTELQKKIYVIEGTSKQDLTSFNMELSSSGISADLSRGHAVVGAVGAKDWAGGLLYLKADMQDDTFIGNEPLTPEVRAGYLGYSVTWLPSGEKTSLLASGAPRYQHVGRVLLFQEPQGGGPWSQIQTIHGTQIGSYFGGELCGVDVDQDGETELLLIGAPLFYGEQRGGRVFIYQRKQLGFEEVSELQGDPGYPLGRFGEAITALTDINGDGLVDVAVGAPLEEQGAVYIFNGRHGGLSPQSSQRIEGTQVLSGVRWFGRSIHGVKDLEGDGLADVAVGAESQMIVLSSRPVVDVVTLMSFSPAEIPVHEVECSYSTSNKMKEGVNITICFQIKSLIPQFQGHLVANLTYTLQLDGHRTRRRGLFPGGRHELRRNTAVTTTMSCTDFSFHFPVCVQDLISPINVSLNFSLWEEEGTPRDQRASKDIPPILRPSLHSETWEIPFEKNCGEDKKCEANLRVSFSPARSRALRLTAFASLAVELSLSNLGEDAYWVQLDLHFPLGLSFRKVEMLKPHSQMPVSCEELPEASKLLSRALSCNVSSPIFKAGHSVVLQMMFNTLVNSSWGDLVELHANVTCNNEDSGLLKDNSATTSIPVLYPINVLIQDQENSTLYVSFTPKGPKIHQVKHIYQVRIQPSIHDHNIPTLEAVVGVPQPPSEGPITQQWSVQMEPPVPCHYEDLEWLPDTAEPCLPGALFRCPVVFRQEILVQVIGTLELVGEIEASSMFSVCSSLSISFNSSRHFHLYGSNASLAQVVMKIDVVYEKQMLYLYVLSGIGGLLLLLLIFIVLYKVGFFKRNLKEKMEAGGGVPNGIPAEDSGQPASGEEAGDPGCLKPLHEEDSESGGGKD
Assay: binding to rhesus peripheral blood lymphocytes
measure: Var.EC50/HuIgG1 EC50
Answers are plain numbers.

Example entries and their recorded answers appear below.
binder	Var.EC50/HuIgG1 EC50
ThrL53Ala variant IgG1 (antibody, V domains shown) VH: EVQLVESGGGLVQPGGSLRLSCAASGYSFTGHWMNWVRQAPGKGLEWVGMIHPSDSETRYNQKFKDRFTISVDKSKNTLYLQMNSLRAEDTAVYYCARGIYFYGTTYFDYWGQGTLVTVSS VL: DIQMTQSPSSLSASVGDRVTITCRASKTISKYLAWYQQKPGKAPKLLIYSGSALQSGVPSRFSGSGSGTDFTLTISSLQPEDFATYYCQQHNEYPLTFGQGTKVEIKR	0.7
GluL93Ala variant IgG1 (antibody, V domains shown) VH: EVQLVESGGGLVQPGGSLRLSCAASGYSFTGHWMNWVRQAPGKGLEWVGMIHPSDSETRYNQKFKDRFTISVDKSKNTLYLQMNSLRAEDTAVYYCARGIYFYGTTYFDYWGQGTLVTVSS VL: DIQMTQSPSSLSASVGDRVTITCRASKTISKYLAWYQQKPGKAPKLLIYSGSTLQSGVPSRFSGSGSGTDFTLTISSLQPEDFATYYCQQHNAYPLTFGQGTKVEIKR	2.9

Could you now look at the following binder, please?
Which Var.EC50/HuIgG1 EC50 value belongs to H2C9 variant IgG1 (antibody, V domains shown) VH: EVQLVESGGGLVQPGGSLRLSCAASGYSFTGHWMNWVRQAPGKGLEWVGMIAPAASNTRYNQKFKDRFTISVDKSKNTLYLQMNSLRAEDTAVYYCARGIYFYGTTYFDYWGQGTLVTVSS VL: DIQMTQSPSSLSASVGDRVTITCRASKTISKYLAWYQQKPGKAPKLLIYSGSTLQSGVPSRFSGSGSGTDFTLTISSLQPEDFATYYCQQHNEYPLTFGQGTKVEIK ?
0.22

Each recorded value in this set is attributed to patent EP1516629B1.
